# System: MCF7;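 note: secreted proteins added to cultured cells, EdU pulse at the end, nuclei found by Hoechst imaging, EdU status from nuclear versus surrounding ring intensity ratio, PBS as neutral control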
# Method Summary: percentage of EdU-negative (G0-arrested) nuclei per well, 72 h; higher = more G0 arrest
# Settings: protein concentration 0.225 µM; reference: sequence is the full UniProt precursor, the tested protein was the secreted form or ectodomain
Measured Property: percentage of EdU-negative (%)
Record the value in %, omitting the unit from your answer.

Prompt line: If you can, please state the reported percentage of EdU-negative value of MLPAAMKGLGLALLAVLLCSAPAHGLWCQDCTLTTNSSHCTPKQCQPSDTVCASVRITDPSSSRKDHSVNKMCASSCDFVKRHFFSDYLMGFINSGILKVDVDCCEKDLCNGAAGAGHSPWALAGGLLLSLGPALLWAGP .
Response line: 26.7

Prompt line: If you can, please state the reported percentage of EdU-negative value of MDSSREPTLGRLDAAGFWQVWQRFDADEKGYIEEKELDAFFLHMLMKLGTDDTVMKANLHKVKQQFMTTQDASKDGRIRMKELAGMFLSEDENFLLLFRRENPLDSSVEFMQIWRKYDADSSGFISAAELRNFLRDLFLHHKKAISEAKLEEYTGTMMKIFDRNKDGRLDLNDLARILALQENFLLQFKMDACSTEERKRDFEKIFAYYDVSKTGALEGPEVDGFVKDMMELVQPSISGVDLDKFREILLRHCDVNKDGKIQKSELALCLGLKINP .
Response line: 25.7

Prompt line: Find the recorded percentage of EdU-negative belonging to MFFWCACCLMVAWRVSASDAEHCPELPPVDNSIFVAKEVEGQILGTYVCIKGYHLVGKKTLFCNASKEWDNTTTECRLGHCPDPVLVNGEFSSSGPVNVSDKITFMCNDHYILKGSNRSQCLEDHTWAPPFPICKSRDCDPPGNPVHGYFEGNNFTLGSTISYYCEDRYYLVGVQEQQCVDGEWSSALPVCKLIQEAPKPECEKALLAFQESKNLCEAMENFMQQLKESGMTMEELKYSLELKKAELKAKLL and report it.
Response line: 27.8
